- tested_on: T1, rat VPAC2 receptor (rat, UniProt P35000 23-437)
- T1 sequence (looked up): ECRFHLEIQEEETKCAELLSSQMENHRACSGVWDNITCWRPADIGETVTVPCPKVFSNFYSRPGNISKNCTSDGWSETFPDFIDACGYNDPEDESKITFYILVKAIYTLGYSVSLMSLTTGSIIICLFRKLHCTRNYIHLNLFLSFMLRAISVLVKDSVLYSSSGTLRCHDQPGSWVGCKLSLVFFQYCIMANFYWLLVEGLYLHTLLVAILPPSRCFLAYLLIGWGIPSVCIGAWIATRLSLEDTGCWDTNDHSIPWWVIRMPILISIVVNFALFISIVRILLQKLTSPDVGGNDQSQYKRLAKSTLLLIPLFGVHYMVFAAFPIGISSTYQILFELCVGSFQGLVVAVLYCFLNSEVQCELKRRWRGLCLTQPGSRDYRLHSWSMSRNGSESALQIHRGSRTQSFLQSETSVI
- assay: cell-based or functional assay
Square brackets hold non-standard residues; d marks the D form. Ends that are not written are not given here. * marks the point of attachment. Orn = NCCC[C@H](N)C(=O)O; Hexanoyl = CCCCCC(=O)*; Aib = CC(C)(N)C(=O)O
readout_label: Rat VPAC2 Receptor: DiscoveRx (EC50; nM), cAMP generation
Provide only the numeric value, understood in nM.

HSDAVFTDNYTXLRXQVAAXSYLQSIXNXGGPSSGAPPPS (N-terminal hexanoyl (C6); Orn at 12, 27 and 29; Aib at 15 and 20) [VPAC2 receptor peptide agonist P386] yielded Rat VPAC2 Receptor: DiscoveRx (EC50; nM), cAMP generation of 0.28

HSDAVFTDNYTXLRXQVAAXKYLSSIXNXGGPSSGAPPPS (N-terminal hexanoyl (C6); Orn at 12, 27 and 29; Aib at 15 and 20) [VPAC2 receptor peptide agonist P383] yielded Rat VPAC2 Receptor: DiscoveRx (EC50; nM), cAMP generation of 0.18

Hexanoyl-HSDAVFTDQYTR[Aib]R[Aib]QVAA[Aib]KYLQSIK[Aib]KGGPSSGAPPPS [VPAC2 receptor peptide agonist P406] yielded Rat VPAC2 Receptor: DiscoveRx (EC50; nM), cAMP generation of 0.04

Hexanoyl-HSDAVFTDQYTR[Aib]R[Aib]QLAA[Aib]KYLQSIK[Aib]KGGPSSGAPPPS [VPAC2 receptor peptide agonist P407] yielded Rat VPAC2 Receptor: DiscoveRx (EC50; nM), cAMP generation of 0.03

Hexanoyl-HSDAVFTDNYT[Orn]SR[Aib]QVAA[Aib]KYLQSI[Orn]N[Orn]GGPSSGAPPPS [VPAC2 receptor peptide agonist P391] yielded Rat VPAC2 Receptor: DiscoveRx (EC50; nM), cAMP generation of 0.5
